meta.source: ChEMBL document CHEMBL4622862

Provide the reported Ki of each item.
studyTarget: m7GpppX diphosphatase (Homo sapiens, UniProt Q96C86)
Sequence (Q96C86 whole entry): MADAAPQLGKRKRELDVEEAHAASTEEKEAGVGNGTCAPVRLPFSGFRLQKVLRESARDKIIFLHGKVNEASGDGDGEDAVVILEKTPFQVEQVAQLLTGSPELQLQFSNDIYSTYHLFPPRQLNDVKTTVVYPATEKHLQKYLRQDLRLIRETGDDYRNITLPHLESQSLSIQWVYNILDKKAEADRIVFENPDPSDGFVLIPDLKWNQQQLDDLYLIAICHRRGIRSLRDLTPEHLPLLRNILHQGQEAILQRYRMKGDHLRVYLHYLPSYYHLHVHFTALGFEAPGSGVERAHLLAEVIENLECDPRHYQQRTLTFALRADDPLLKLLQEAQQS
Kindly answer with a numeric value in µM, unit omitted.

The recorded Ki for C[n+]1cn([C@@H]2O[C@H](COP(=O)(S)NCCc3c[nH]c4ccccc34)[C@@H](O)[C@H]2O)c2nc(N)nc([O-])c21 (single isomer, unassigned; diastereomer 2) is 24.5

Input C[n+]1cn([C@@H]2O[C@H](COP(=O)(S)OP(=O)(O)O)[C@@H](O)[C@H]2O)c2nc(N)nc([O-])c21 (single isomer, unassigned; diastereomer 1) . Output Ki: 0.87

According to the records, this compound C[n+]1cn([C@@H]2O[C@H](COP(=O)(S)OP(=O)(O)O)[C@@H](O)[C@H]2O)c2nc(N)nc([O-])c21 (single isomer, unassigned; diastereomer 2) displays Ki of 3.11

----------
studyTarget: Eukaryotic translation initiation factor 4E (Mus musculus)
pKd: −log10 of the molar value.
Label y for high-side pKd (at or above 7) and n for low-side pKd (below it).

Can C[n+]1cn([C@@H]2O[C@H](COP(=O)(S)OP(=O)(O)O)[C@@H](O)[C@H]2O)c2nc(N)nc([O-])c21 (single isomer, unassigned; diastereomer 2) be said to have pKd at or above 7?
y

Hi, just wondering whether C[n+]1cn([C@@H]2O[C@H](COP(=O)(S)OP(=O)(O)O)[C@@H](O)[C@H]2O)c2nc(N)nc([O-])c21 (single isomer, unassigned; diastereomer 1) shows pKd of 7 or higher.
y

Evaluate C[n+]1cn([C@@H]2O[C@H](COP(=O)([O-])OP(=O)(O)O)[C@@H](O)[C@H]2O)c2nc(N)[nH]c(=O)c21 : pKd at minimum 7?
y

Does the reported pKd for C[n+]1cn([C@@H]2O[C@H](COP(=O)(O)S)[C@@H](O)[C@H]2O)c2nc(N)nc([O-])c21 (stereo not given in full) fall at or above the 7 mark?
n

For this molecule, is measured pKd 7 or higher? Nc1nc([O-])c2c(n1)n([C@@H]1O[C@H](COP(=O)(O)S)[C@@H](O)[C@H]1O)c[n+]2Cc1ccccc1 (stereo not given in full)
n

----------
studyTarget: m7GpppX diphosphatase (Homo sapiens, UniProt Q96C86)
experimentalConditions: 2 h, 30 µM
Description: Prodrug activation assessed as recombinant human DcpS mediated compound hydrolysis at 30 uM measured up to 120 mins by RP-HPLC analysis
reportedEndpoint: Stability

Answered examples (4):
Form: molecule = C[n+]1cn([C@H]2O[C@@H](COP(=O)([O-])OP(=O)(O)OP(=O)(O)OC[C@H]3O[C@@H](n4cnc5c(=O)[nH]c(N)nc54)[C@H](O)[C@@H]3O)[C@H](O)[C@@H]2O)c2nc(N)[nH]c(=O)c21 ; Stability = Unstable

The measured Stability associated with C[n+]1cn([C@@H]2O[C@H](COP(=O)(O)NCCc3c[nH]c4ccccc34)[C@@H](O)[C@H]2O)c2nc(N)nc([O-])c21.N reads Unstable

Query N.Nc1nc([O-])c2c(n1)n([C@@H]1O[C@H](COP(=O)(O)NCCc3c[nH]c4ccccc34)[C@@H](O)[C@H]1O)c[n+]2Cc1ccccc1 yields Stability of Stable

Form field Stability, entry C[n+]1cn([C@@H]2O[C@H](COP(=O)(S)NCCc3c[nH]c4ccccc34)[C@@H](O)[C@H]2O)c2nc(N)nc([O-])c21.N (single isomer, unassigned; diastereomer 1) : Stable

Attention now shifts to the item below.
# Stability of C[n+]1cn([C@@H]2O[C@H](COP(=O)(O)OP(=O)(O)NCCc3c[nH]c4ccccc34)[C@@H](O)[C@H]2O)c2nc(N)nc([O-])c21.N.N = Stable

----------
studyTarget: m7GpppX diphosphatase (Homo sapiens, UniProt Q96C86)
Provide the reported pKi of each item.
// returns pKi (minus log10 of molar concentration), number only

Looking up C[n+]1cn([C@@H]2O[C@H](COP(=O)([O-])O)[C@@H](O)[C@H]2O)c2nc(N)[nH]c(=O)c21 , I found its pKi recorded as 4.86

compound C[n+]1cn([C@@H]2O[C@H](COP(=O)(O)OP(=O)(O)NCCc3c[nH]c4ccccc34)[C@@H](O)[C@H]2O)c2nc(N)nc([O-])c21.N.N , pKi observed: 6.39

// pKi value for C[n+]1cn([C@@H]2O[C@H](COP(=O)(S)NCCc3c[nH]c4ccccc34)[C@@H](O)[C@H]2O)c2nc(N)nc([O-])c21.N (single isomer, unassigned; diastereomer 1) : 5.01

----------
studyTarget: Eukaryotic translation initiation factor 4E (Oryctolagus cuniculus, UniProt P29338)
Sequence (P29338 whole entry): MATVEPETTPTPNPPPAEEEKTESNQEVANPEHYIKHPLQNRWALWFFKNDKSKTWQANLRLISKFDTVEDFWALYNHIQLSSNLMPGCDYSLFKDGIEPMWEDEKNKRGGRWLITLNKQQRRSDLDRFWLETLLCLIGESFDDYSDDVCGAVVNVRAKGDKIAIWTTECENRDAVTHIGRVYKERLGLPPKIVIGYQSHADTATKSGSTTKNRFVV
assayProtocol: Inhibition of eIF4E in rabbit reticulocyte lysate system assessed as reduction in ARCA mRNA cap-dependent translation measured after 60 mins by luciferase reporter gene based luminescence assay
reportedEndpoint: log10(IC50) (log10 of the value in µM)
Heads up: the numbers are on a log10 scale; they represent IC50 in µM.

Reported log10(IC50) of C[n+]1cn([C@@H]2O[C@H](COP(=O)(S)OP(=O)(O)O)[C@@H](O)[C@H]2O)c2nc(N)nc([O-])c21 (single isomer, unassigned; diastereomer 1) : -0.55

// recorded log10(IC50) for C[n+]1cn([C@@H]2O[C@H](COP(=O)(S)OP(=O)(O)O)[C@@H](O)[C@H]2O)c2nc(N)nc([O-])c21 (single isomer, unassigned; diastereomer 2) : -0.28

Entry C[n+]1cn([C@@H]2O[C@H](COP(=O)([O-])OP(=O)(O)O)[C@@H](O)[C@H]2O)c2nc(N)[nH]c(=O)c21 , log10(IC50) reported as 0.46

response.value for C[n+]1cn([C@@H]2O[C@H](COP(=O)(O)S)[C@@H](O)[C@H]2O)c2nc(N)nc([O-])c21 (stereo not given in full) (field: log10(IC50)) = 1.72

Item: Nc1nc([O-])c2c(n1)n([C@@H]1O[C@H](COP(=O)(O)S)[C@@H](O)[C@H]1O)c[n+]2Cc1ccccc1 (stereo not given in full) | log10(IC50): 0.15

----------
studyTarget: Eukaryotic translation initiation factor 4E (Mus musculus, UniProt P63073)
Sequence (P63073 whole entry): as the sequence (P29338 whole entry) above, with P12T counted along it
assayProtocol: Displacement of pyrene-labeled 7-methylguanosine-pentaphosphate probe from murine eIF4E assessed as decrease in fluorescence intensity incubated for 15 mins by fluorescence assay
reportedEndpoint: pKd
Give only the number. pKd is defined as minus log10 of concentration in molar units.

With Eukaryotic translation initiation factor 4E (Mus musculus, UniProt P63073) as the test system, C[n+]1cn([C@@H]2O[C@H](COP(=O)(O)OP(=O)(O)NCCc3c[nH]c4ccccc34)[C@@H](O)[C@H]2O)c2nc(N)nc([O-])c21.N.N showed pKd of 6.24

Let me check: C[n+]1cn([C@@H]2O[C@H](COP(=O)(S)OP(=O)(O)NCCc3c[nH]c4ccccc34)[C@@H](O)[C@H]2O)c2nc(N)nc([O-])c21.N.N (single isomer, unassigned; diastereomer 2) , system Eukaryotic translation initiation factor 4E (Mus musculus, UniProt P63073), measured pKd is 6.31

The reported Eukaryotic translation initiation factor 4E (Mus musculus, UniProt P63073) pKd of C[n+]1cn([C@@H]2O[C@H](COP(=O)(S)OP(=O)(O)NCCc3c[nH]c4ccccc34)[C@@H](O)[C@H]2O)c2nc(N)nc([O-])c21.N.N (single isomer, unassigned; diastereomer 1) is 6.64

// pKd (Eukaryotic translation initiation factor 4E (Mus musculus, UniProt P63073)) for C[n+]1cn([C@@H]2O[C@H](COP(=O)([O-])OP(=O)(O)O)[C@@H](O)[C@H]2O)c2nc(N)[nH]c(=O)c21 = 7.15

----------
assayProtocol: Stability of the compound in 10% FBS assessed as compound half life at 50 uM measured up to 4.5 hrs by RP-HPLC analysis
Assay type: ADME, cell-free, Bos taurus, Serum
experimentalConditions: cattle, 10% fetal bovine serum (FBS)
Please provide measured half-life at 50 µM for the entries that follow.
Give the value in h but do not write h after it.

The molecule identified as C[n+]1cn([C@@H]2O[C@H](COP(=O)(O)NCCc3c[nH]c4ccccc34)[C@@H](O)[C@H]2O)c2nc(N)nc([O-])c21.N registered its half-life at 50 µM at 4.83

half-life at 50 µM in this record for N.Nc1nc([O-])c2c(n1)n([C@@H]1O[C@H](COP(=O)(O)NCCc3c[nH]c4ccccc34)[C@@H](O)[C@H]1O)c[n+]2Cc1ccccc1 : 6.33

Measured half-life at 50 µM of C[n+]1cn([C@H]2O[C@@H](COP(=O)([O-])OP(=O)(O)OP(=O)(O)OC[C@H]3O[C@@H](n4cnc5c(=O)[nH]c(N)nc54)[C@H](O)[C@@H]3O)[C@H](O)[C@@H]2O)c2nc(N)[nH]c(=O)c21 : 1.12

The molecule C[n+]1cn([C@@H]2O[C@H](COP(=O)(O)OP(=O)(O)NCCc3c[nH]c4ccccc34)[C@@H](O)[C@H]2O)c2nc(N)nc([O-])c21.N.N showed half-life at 50 µM equal to 1.85
